Cited source for all entries: patent US20240174727A1

Target: T1, rat NPRA (rat, UniProt P18910 29-1057)
T1 sequence (looked up): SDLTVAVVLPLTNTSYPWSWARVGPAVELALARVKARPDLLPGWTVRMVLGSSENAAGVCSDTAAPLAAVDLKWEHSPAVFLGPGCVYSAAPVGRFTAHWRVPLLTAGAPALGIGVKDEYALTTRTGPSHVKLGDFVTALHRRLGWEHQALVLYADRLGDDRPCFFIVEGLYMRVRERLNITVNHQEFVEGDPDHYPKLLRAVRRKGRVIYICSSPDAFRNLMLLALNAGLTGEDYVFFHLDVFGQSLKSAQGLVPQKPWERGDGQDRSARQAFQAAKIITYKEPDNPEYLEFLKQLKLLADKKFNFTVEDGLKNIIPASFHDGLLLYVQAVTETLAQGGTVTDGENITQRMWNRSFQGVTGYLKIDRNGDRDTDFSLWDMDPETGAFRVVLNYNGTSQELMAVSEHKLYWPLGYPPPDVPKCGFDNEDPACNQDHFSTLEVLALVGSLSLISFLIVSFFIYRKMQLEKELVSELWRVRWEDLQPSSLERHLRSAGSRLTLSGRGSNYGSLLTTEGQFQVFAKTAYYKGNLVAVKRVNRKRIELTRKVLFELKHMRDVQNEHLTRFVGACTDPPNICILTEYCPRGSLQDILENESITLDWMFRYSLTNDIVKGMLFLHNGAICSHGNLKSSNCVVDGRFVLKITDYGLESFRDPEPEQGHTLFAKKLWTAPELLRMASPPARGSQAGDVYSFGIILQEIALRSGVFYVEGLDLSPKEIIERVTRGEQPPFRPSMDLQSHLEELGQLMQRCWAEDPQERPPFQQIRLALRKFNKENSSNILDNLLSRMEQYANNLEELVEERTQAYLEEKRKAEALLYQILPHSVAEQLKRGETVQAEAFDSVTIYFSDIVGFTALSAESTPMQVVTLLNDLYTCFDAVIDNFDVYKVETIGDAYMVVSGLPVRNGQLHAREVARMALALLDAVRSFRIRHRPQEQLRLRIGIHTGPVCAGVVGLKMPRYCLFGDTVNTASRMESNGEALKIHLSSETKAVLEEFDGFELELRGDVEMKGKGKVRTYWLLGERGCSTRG
Assay: cell-based or functional assay
READOUT TYPE: cGMP Assay (EC50, pM) w/BSA

>  <BINDER>
EKXRSSCFGGKIDRIGHQSGLGCPSFRHGSPSSGAPPPS (HOOC-(CH2)18-CO-(γGlu)-EKEKEKG-PEG24-EK-βAla-RSS[CFGGKIDRIGHQSGLGC]PSFRHGSPSSGAPPPS-NH2; thioacetal linkage between the bracketed Cys) [Example 7]

>  <RESULT UNITS>
pM

>  <EXPERIMENTAL VALUE>
1.17e+06

$$$$
>  <BINDER>
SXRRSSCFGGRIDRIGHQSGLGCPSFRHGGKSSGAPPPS (HOOC-(CH2)18-CO-(γGlu)-EKEKEKG-PEG24-S-4Pal-RRSS[CFGGRIDRIGHQSGLGC]PSFRHGGKSSGAPPPS-NH2; thioacetal linkage between the bracketed Cys) [Example 75]

>  <RESULT UNITS>
pM

>  <EXPERIMENTAL VALUE>
533000

$$$$
>  <BINDER>
XEKEKEKGSXRRSSCFGGRIDRIGHQSGLGCPSFRHGGPSSGAPPPS (HOOC-(CH2)18-CO-(γGlu)-EKEKEKGS-4Pal-RRSS[CFGGRIDRIGHQSGLGC]PSFRHGGPSSGAPPPS-NH2; thioacetal linkage between the bracketed Cys) [Example 2]

>  <RESULT UNITS>
pM

>  <EXPERIMENTAL VALUE>
1.27e+06

$$$$
